assay target: UniProt Q13822
protocol details: ATX enzyme inhibition assay (Amplex UltraRed/choline oxidase/HRP, 16:0 Lyso PC substrate)
Format: biochemical
condition notes: assay buffer pH 8.5; read-out: IC50 (nM) pH 8.5
readout: IC50 (nM)

// known answers, use as guide
compound: CN1CC[C@H](C(=O)N2CC3(C2)CN(c2cc(F)c4nc5c(c(N(C)c6nc(-c7ccc(F)cc7)c(C#N)s6)c4c2)CC[C@H]5O)C3)C1 (single isomer, unassigned) [Example E18-b]
readout: IC50
value reported: 37.1

compound: CN(c1nc(-c2ccc(F)cc2)c(C#N)s1)c1c2c(nc3ncc(N4CC5(CN(C(=O)[C@@H]6CCOC6)C5)C4)cc13)CC2 [Example C17]
readout: IC50
value reported: 25.9

A = CN(c1nc(-c2ccc(F)cc2)c(C#N)s1)c1c2c(nc3c(F)cc(N4CC5(CN(C(=O)C(C)(C)O)C5)C4)cc13)[C@H](O)CC2 (single isomer, unassigned) [Example E16-b]
B = CN(c1nc(-c2ccc(F)cc2)c(C#N)s1)c1c2c(nc3c(F)cc(N4CCN(C(=O)[C@H]5CCOC5)CC4)cc13)CCC2 [Example C7]
C = CN(c1nc(-c2ccc(F)cc2)c(C#N)s1)c1c2c(nc3c(F)cc(N4CC5(CN(CC(=O)N6CCCC6)C5)C4)cc13)C(O)CC2 (stereo not drawn) [Example E11]
D = CN(c1nc(-c2ccc(F)cc2)c(C#N)s1)c1c2c(nc3c(F)cc(N4CC5(CN(CC(=O)N6CC(O)C6)C5)C4)cc13)CCO2 [Example A23]
Reorder the items by IC50, least to greatest. Labels, requested order.
A, C, D, B

* * *

Tested on: plasma LPA 18:1 and LPA 18:2
protocol details: Human plasma ex vivo assay (LPA 18:1 / 18:2 by LC-MS/MS)
Assay type: biochemical
condition notes: 37° C., 2 hours, LPA 18:1, read-out: Human plasma ex vivo assay IC50 (18:1 LPA)
pIC50: −log10 of the molar value.
readout: pIC50

a = CN(c1nc(-c2ccc(F)cc2)c(C#N)s1)c1c2c(nc3ncc(N4CC5(CN(C(=O)[C@H]6CCOC6)C5)C4)cc13)CCC2
b = C[C@@H]1CN(c2cc(F)c3nc4c(c(N(C)c5nc(-c6ccc(F)cc6)c(C#N)s5)c3c2)CC[C@@H]4O)CCN1CC(=O)N1CC(O)C1 (single isomer, unassigned)
Lower value for measured pIC50? Options: a , b Provide the label of your selected option as the answer.
b

* * *

protocol details: Pharmacokinetic test in mice
Assay type: in vivo, ICR mice
condition notes: male, ICR, mouse, plasma, 5 mg/kg, PO - 5 mpk
readout: AUC (ng·h/mL)

// known answers, use as guide
molecule: Cc1cc(N2CC3(CN(C(=O)C(C)(C)O)C3)C2)nc2c(N(C)c3nc(-c4ccc(F)cc4)c(C#N)s3)c3c(nc12)C(O)CC3 (centres unmarked)
AUC [ng·h/mL]: 8890

molecule: Cc1cc(N2CC3(CN(C(=O)C(C)(C)O)C3)C2)nc2c(N(C)c3nc(-c4ccc(F)cc4)c(C#N)s3)c3c(nc12)C(C)(O)CC3 (centres unmarked)
AUC [ng·h/mL]: 23900

molecule: CN(c1nc(-c2ccc(F)cc2)c(C#N)s1)c1c2c(nc3ncc(N4CC5(CN(C(=O)[C@@H]6CCOC6)C5)C4)cc13)CC2
AUC [ng·h/mL]: 16900

molecule: CN(c1nc(-c2ccc(F)cc2)c(C#N)s1)c1c2c(nc3c(F)cc(N4CC5(CN(C(=O)C(C)(C)O)C5)C4)cc13)CCC2
AUC [ng·h/mL]: 21400

A = Cc1cc(N2CC3(CN(C(=O)C(C)(C)O)C3)C2)cc2c(N(C)c3nc(-c4ccc(F)cc4)c(C#N)s3)c3c(nc12)CC3
B = CN(c1nc(-c2ccc(F)cc2)c(C#N)s1)c1c2c(nc3c(F)cc(N4CC5(CN(C(=O)C(C)(C)O)C5)C4)cc13)[C@](C)(O)CC2 (single isomer, unassigned)
Lower value for measured AUC? Options: A , B Provide the label of your selected option as the answer.
B
